TESTED_ON: SMARCA4 (Homo sapiens, UniProt P51532)
Sequence (P51532 whole entry): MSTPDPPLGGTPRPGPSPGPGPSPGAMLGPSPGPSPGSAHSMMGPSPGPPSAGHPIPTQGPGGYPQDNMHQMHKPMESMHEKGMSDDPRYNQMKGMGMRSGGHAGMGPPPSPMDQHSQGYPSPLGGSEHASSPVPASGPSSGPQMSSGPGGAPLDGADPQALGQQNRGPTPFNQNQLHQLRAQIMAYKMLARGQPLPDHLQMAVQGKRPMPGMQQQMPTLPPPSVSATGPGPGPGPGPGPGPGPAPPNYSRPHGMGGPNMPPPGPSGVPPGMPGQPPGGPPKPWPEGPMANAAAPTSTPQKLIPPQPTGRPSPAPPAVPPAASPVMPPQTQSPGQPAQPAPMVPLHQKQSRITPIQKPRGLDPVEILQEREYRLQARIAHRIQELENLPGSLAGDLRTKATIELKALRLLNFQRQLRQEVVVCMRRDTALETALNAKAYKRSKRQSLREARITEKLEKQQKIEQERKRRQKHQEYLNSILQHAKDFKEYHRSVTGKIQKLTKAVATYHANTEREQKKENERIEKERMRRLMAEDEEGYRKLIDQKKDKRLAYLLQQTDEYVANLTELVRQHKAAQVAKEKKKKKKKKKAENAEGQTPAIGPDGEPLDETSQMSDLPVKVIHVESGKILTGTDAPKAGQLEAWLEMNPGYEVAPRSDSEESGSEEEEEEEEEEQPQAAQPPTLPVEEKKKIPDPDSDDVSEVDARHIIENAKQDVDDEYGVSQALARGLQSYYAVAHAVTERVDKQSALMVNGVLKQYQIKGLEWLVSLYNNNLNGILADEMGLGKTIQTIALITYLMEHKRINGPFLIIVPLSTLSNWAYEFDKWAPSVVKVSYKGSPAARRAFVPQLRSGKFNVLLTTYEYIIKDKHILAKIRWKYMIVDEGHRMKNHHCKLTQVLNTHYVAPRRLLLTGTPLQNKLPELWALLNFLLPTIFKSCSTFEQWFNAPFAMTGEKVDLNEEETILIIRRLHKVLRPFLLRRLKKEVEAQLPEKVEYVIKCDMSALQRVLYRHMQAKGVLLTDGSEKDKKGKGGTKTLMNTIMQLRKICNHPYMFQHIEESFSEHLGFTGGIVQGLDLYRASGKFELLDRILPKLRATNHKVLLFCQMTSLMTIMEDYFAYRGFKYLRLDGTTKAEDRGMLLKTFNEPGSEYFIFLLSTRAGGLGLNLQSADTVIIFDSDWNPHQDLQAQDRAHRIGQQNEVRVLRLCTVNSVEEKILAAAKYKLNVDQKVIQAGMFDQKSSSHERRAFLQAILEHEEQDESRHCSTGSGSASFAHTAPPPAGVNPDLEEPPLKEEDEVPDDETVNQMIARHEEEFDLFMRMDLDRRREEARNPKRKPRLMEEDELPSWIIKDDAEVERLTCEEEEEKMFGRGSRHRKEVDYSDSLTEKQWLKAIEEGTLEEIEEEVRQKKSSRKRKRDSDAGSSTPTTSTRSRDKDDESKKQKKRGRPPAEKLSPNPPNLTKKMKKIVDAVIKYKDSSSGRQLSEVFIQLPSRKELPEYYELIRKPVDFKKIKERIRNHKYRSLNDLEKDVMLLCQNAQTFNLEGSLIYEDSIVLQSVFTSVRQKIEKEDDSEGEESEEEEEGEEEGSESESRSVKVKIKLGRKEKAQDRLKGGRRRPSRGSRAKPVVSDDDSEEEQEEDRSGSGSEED
MEASUREMENT_NOTES: SMARCA4 capillary electrophoresis protein assay in RKO cells
Format: cell-based
Set-up: endogenous in cells; host or cells: RKO, HCT116, LU99, HCC-364, HCT-15, HCC4006, SK-N-AS
MEASUREMENT_CONDITIONS: RKO (18 h); mean ± SD
ENDPOINT: DC50

Task: Give the measured DC50 of Cc1ncsc1-c1ccc([C@H](COCCN2CCC(c3ccc4c(c3)n(C3CCCC3)c3nc(=O)c5c(Br)cccc5n43)CC2)NC(=O)[C@@H]2C[C@@H](O)CN2C(=O)[C@@H](NC(=O)C2(N(C)C)CC2)C(C)(C)C)cc1 .
Result: 83 nM

Task: Another molecule to check: Cc1ncsc1-c1ccc([C@H](COCCCN2CCC(c3ccc4c(c3)n(C3CCCC3)c3nc(=O)c5c(Br)cccc5n43)CC2)NC(=O)[C@@H]2C[C@@H](O)CN2C(=O)[C@@H](NC(=O)C2(F)CC2)C(C)(C)C)cc1
Result: 29 nM

Task: Another molecule to check: Cc1ncsc1-c1ccc(CNC(=O)[C@@H]2C[C@H](O)CN2C(=O)[C@@H](NC(=O)C2(F)CC2)C(C)(C)C)c(OCCN2CCC(c3ccc4c(c3)n(C3CCCC3)c3nc(=O)c5c(Br)cccc5n43)CC2)c1
Result: > 25000 nM

Task: Another molecule to check: Cc1ncsc1-c1ccc(CNC(=O)[C@@H]2C[C@@H](O)CN2C(=O)[C@@H](NC(=O)C2(F)CC2)C(C)(C)C)c(OCCOCCOCCOCCN2CCC(c3ccc4c(c3)n(C3CCCC3)c3nc(=O)c5c(Br)cccc5n43)CC2)c1
Result: 77 nM
